Test Protocol: stability 90 C., 20 min (V, BP, TW, BS) of hydrocodone conjugates
Condition: TW (abbreviation not defined)
Residues, ends and D or L forms follow the SMILES beside them. *: point of attachment. X1 = COc1ccc2c3c1OC1C(O*)=CCC4[C@@H](C2)N(C)CC[C@]314
API: label(entry) gives met if the entry's stability 90 C., 20 min TW is strictly smaller than 70; on equality or larger values it gives not met.

# Compound, Assigned Category
data = [
    ("CC[C@H](C)[C@H](NC(=O)[C@H](CCC(=O)O)NC(=O)[C@H](CCC(=O)O)NC(=O)CNC(=O)CN)C(=O)OC1=CCC2[C@H]3Cc4ccc(OC)c5c4[C@@]2(CCN3C)C1O5 (stereo partly drawn) [Gly2-Glu2-Ile-HC] (H-GGEEI-X1)", "met"),
    ("CC[C@H](C)[C@H](NC(=O)[C@H](CC(=O)O)NC(=O)[C@H](CC(=O)O)NC(=O)[C@H](CCC(=O)O)NC(=O)[C@@H](N)CCC(=O)O)C(=O)OC1=CCC2[C@H]3Cc4ccc(OC)c5c4[C@@]2(CCN3C)C1O5 (stereo partly drawn) [Glu2-Asp2-Ile-HC] (H-EEDDI-X1)", "met"),
    ("CC[C@H](C)[C@H](NC(=O)CNC(=O)CNC(=O)[C@H](CCC(=O)O)NC(=O)[C@@H](N)CCC(=O)O)C(=O)OC1=CCC2[C@H]3Cc4ccc(OC)c5c4[C@@]2(CCN3C)C1O5 (stereo partly drawn) [Glu2-Gly2-Ile-HC, Glu2-Gly2-Ile-Hydrocodone] (H-EEGGI-X1)", "met"),
    ("CC[C@H](C)[C@H](NC(=O)[C@H](Cc1ccccc1)NC(=O)[C@H](Cc1ccccc1)NC(=O)[C@H](Cc1ccc(O)cc1)NC(=O)[C@@H](N)Cc1ccc(O)cc1)C(=O)OC1=CCC2[C@H]3Cc4ccc(OC)c5c4[C@@]2(CCN3C)C1O5 (stereo partly drawn) [Tyr2-Phe2-Ile-HC] (H-YYFFI-X1)", "met"),
    ("CC[C@H](C)[C@H](NC(=O)[C@H](CC(C)C)NC(=O)[C@@H]1CCCN1)C(=O)OC1=CCC2[C@H]3Cc4ccc(OC)c5c4[C@@]2(CCN3C)C1O5 (stereo partly drawn)", "not met"),
    ("CC[C@H](C)[C@H](NC(=O)[C@H](CC(=O)O)NC(=O)[C@H](CC(=O)O)NC(=O)[C@H](CCCCN)NC(=O)[C@@H](N)CCCCN)C(=O)OC1=CCC2[C@H]3Cc4ccc(OC)c5c4[C@@]2(CCN3C)C1O5 (stereo partly drawn) [Lys2-Asp2-Ile-HC] (H-KKDDI-X1)", "met"),
    ("CC[C@H](C)[C@H](NC(=O)[C@@H]1CCCN1)C(=O)N[C@H](C(=O)OC1=CCC2[C@H]3Cc4ccc(OC)c5c4[C@@]2(CCN3C)C1O5)[C@@H](C)CC (stereo partly drawn)", "not met"),
    ("CC[C@H](C)[C@H](NC(=O)[C@H](CCCCN)NC(=O)[C@@H](N)CCCCN)C(=O)OC1=CCC2[C@H]3Cc4ccc(OC)c5c4[C@@]2(CCN3C)C1O5 (stereo partly drawn)", "not met"),
]
